- Test system: Plasmodium berghei
- experiment: Luciferase/luciferin-expressing antifolate-resistant parasites were used to infect a culture of HepG2 cells that were pre-incubated with compounds. Infected hepatocytes emit light due to the luciferase reaction. Assay results are presented as the percent inhibition of light emission compared to control. […]
- Assay type: functional
- condition-description: sporozoite, HEPG2TOX_HILL_SLOPE 5.54, HEPG2TOX_R_SQUARED 0.477, read-out: LUCIFERASE INFECTION ASSAY - IC50
endpoint-name: IC50

## Input Requested read-out: IC50. Entry: Oc1ccc(Cl)cc1/C=N/Nc1cccc(C(F)(F)F)c1
## Output > 10.5 µM

* * *

- System: Plasmodium berghei
- experiment: Luciferase/luciferin-expressing antifolate-resistant parasites were used to infect a culture of HepG2 cells that were pre-incubated with compounds. Infected hepatocytes emit light due to the luciferase reaction. Assay results are presented as the percent inhibition of light emission compared to control. […]
- Assay type: functional
- condition-description: sporozoite, PBLUC_HILL_SLOPE 64.7, PBLUC_R_SQUARED 0.2, read-out: LUCIFERASE INFECTION ASSAY - IC50
endpoint-name: pIC50
Keep in mind that pIC50 stands for -log10 of concentration in molar terms.

## Input Can you share its pIC50? I mean this molecule: Cc1cc(N2CCN(CC(=O)N(C)C)CC2)nc2c(C(C)C)cccc12
## Output 5.23

* * *

- System: Plasmodium berghei
- experiment: Luciferase/luciferin-expressing antifolate-resistant parasites were used to infect a culture of HepG2 cells that were pre-incubated with compounds. Infected hepatocytes emit light due to the luciferase reaction. Assay results are presented as the percent inhibition of light emission compared to control. […]
- Assay type: functional
- condition-description: sporozoite, HEPG2TOX_HILL_SLOPE 0.118, HEPG2TOX_R_SQUARED 0.0386, read-out: LUCIFERASE INFECTION ASSAY - IC50
pIC50: −log10 of the molar value.
endpoint-name: pIC50

## Input Name the recorded pIC50 for O=C1CC(c2c(F)cccc2Cl)CC2=Nc3ccccc3NC(c3ccc(Cl)cc3)C12 (stereo unspecified) .
## Output < 5.14

* * *

- Test system: Plasmodium berghei
- experiment: Luciferase/luciferin-expressing antifolate-resistant parasites were used to infect a culture of HepG2 cells that were pre-incubated with compounds. Infected hepatocytes emit light due to the luciferase reaction. Assay results are presented as the percent inhibition of light emission compared to control. […]
- Type: functional
- condition-description: sporozoite, read-out: LUCIFERASE INFECTION ASSAY - IC90
Assignment: determine reported IC90 for the given compounds.

## Input Provide value of IC90 for this record tested with Plasmodium berghei: O=C1Nc2ccc(Cl)cc2/C1=C/c1nn(Cc2ccccc2)cc1-c1cccnc1
## Output > 10 µM

## Input Param readout= IC90; system= Plasmodium berghei; entry= CCOC(=O)c1c(S(=O)(=O)N2CCN(Cc3ccccc3)CC2)c(-c2ccccc2)n(-c2ccccc2)c1C ; returns value.
## Output > 6.07 µM

## Input # returns recorded IC90 (system: Plasmodium berghei) for O=C(OC1(C(F)(F)F)C(=O)Nc2c1ccc1ccccc21)c1cccs1 (stereo unspecified)
## Output > 10 µM

## Input Item COCOc1ccc(-c2cc(-c3cc(C)c(O)c(C)c3)cnc2N)cc1 with Plasmodium berghei - IC90?
## Output 6.77 µM

## Input Param readout= IC90; system= Plasmodium berghei; entry= CN(C)c1ccccc1-c1cn2c(-c3ccc4c(ccn4C)c3)cnc2cn1 ; returns value.
## Output 1.24 µM

## Input // map O=C(Nc1nc2ccccc2[nH]1)c1cccc(S(=O)(=O)N(Cc2ccccc2)c2ccccc2Cl)c1 to recorded IC90 (system: Plasmodium berghei)
## Output 3.66 µM

## Input Give recorded IC90 with Plasmodium berghei for the following compound: O=C(Nc1ccc(OC(F)(F)F)cc1)Nc1ccccc1SCC(O)Cn1ccc(C(F)(F)F)n1 (stereo unspecified)
## Output > 6.34 µM

## Input API: value(readout=IC90, system=Plasmodium berghei) for record O=C(Cn1ncc(Cl)c(Cl)c1=O)N1N=C(c2ccco2)CC1c1cccs1 (stereo unspecified)
## Output > 10 µM

## Input Test system Plasmodium berghei; read-out IC90; what value for CN1CCN(S(=O)(=O)c2ccc(SCC3CCCCC3)nc2)CC1 ?
## Output > 10 µM

## Input Field: IC90 (Plasmodium berghei). Entry: COc1ccc(CC(N)c2csc(NC(=O)C(c3ccccc3)c3ccccc3)n2)cc1 (stereo unspecified)
## Output 5.8 µM

## Input Find IC90 (Plasmodium berghei) for the entry O=C1C(=C(O)c2ccc(OC(F)F)cc2)Sc2ccccc21
## Output > 10 µM

## Input Observed IC90 on Plasmodium berghei for O=C1CN(C(=O)COc2ccc(F)cc2Br)CCN1 , please.
## Output > 10 µM

## Input Request: IC90, test system Plasmodium berghei, entry Cc1nc(-c2ccc3c(c2)CC(=O)N3C)cs1
## Output > 10 µM

## Input State its IC90 on Plasmodium berghei: Cc1cc(C(=O)NCc2nnc3ccccn23)c(C)n1C1CCCCC1
## Output 6.61 µM

## Input Value wanted: IC90 (Plasmodium berghei) of entry NS(=O)(=O)c1ccc(CNC(=O)Cn2cnc3ccccc3c2=O)cc1
## Output > 8.86 µM

## Input # returns recorded IC90 (system: Plasmodium berghei) for COc1ccc(-c2cc(C(=O)NNC3=NCCC3)c3c(C)nn(-c4ccccc4)c3n2)cc1
## Output > 10 µM

## Input Give Plasmodium berghei IC90 for CC1CCc2c(sc3ncnc(NCC(c4ccccc4)N(C)C)c23)C1 (stereo unspecified)
## Output > 10 µM

## Input What measured IC90 is associated with CC(C(=O)Nc1cccc(C#Cc2cccs2)c1)n1cnc2ccccc21 (stereo unspecified) on Plasmodium berghei?
## Output > 10 µM

## Input Under Plasmodium berghei: IC90 value of CC1C/C(=C\c2ccco2)c2nc3ccccc3c(C(=O)OCC(=O)N3CC(=O)Nc4ccccc43)c2C1 (stereo unspecified) ?
## Output > 10 µM

## Input # get_value(readout= IC90, system= Plasmodium berghei) for COc1cc(/C=C2\SC(=O)N(CCNC(=O)c3cnccn3)C2=O)ccc1OC(F)F
## Output > 10 µM

## Input Which IC90 is reported with Plasmodium berghei for this entry: Cc1c(C(=O)O)sc(S(=O)(=O)N2CCN(C(=O)C(C)(C)C)CC2)c1C(=O)O ?
## Output > 10 µM
